Biological target: lipoxygenase from rabbit reticulocytes (Oryctolagus cuniculus, UniProt P12530)
Construct: Lipoxygenase from rabbit reticulocytes was obtained in electrophoretically and immunologically pure form; from tissue; host or cells: rabbit reticulocytes
Sequence (P12530 1-663): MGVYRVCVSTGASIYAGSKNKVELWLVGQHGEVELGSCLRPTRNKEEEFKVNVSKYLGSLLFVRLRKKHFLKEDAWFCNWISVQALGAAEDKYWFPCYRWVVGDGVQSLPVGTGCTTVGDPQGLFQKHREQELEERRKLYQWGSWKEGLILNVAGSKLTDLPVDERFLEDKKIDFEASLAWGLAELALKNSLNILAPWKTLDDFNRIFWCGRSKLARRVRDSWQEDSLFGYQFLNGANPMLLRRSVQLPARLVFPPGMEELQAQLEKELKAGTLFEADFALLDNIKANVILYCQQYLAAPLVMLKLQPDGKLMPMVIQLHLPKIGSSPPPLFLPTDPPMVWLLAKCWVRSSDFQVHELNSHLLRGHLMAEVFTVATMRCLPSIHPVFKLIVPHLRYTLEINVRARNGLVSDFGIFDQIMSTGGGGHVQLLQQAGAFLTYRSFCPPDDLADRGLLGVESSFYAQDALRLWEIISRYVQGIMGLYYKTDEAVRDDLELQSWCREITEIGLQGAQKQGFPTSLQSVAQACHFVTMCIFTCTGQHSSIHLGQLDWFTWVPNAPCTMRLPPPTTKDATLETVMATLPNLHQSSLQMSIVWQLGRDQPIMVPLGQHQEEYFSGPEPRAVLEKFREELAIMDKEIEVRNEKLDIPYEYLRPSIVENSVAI
Experiment: inhibition of activity of lipoxygenase from rabbit reticulocytes
Type: biochemical
Conditions: Table 3; in parentheses; read-out: I50-value, lipoxygenase from reticulocytes
List of IC50 values.
Field format: number, assumed µM, no unit text.

If you can, please state the reported IC50 value of CCCCCCOc1ccc(C(C)=NO)c(O)c1 [4-hexyloxy-2-hydroxy-acetophenone-oxime] .
260

Also check CCCCCC(=NO)c1cc(Cl)ccc1O [5-chloro-2-hydroxy-caprophenone-oxime]
300

Now try CCCCCCCCCCCCCCCCOc1ccc(C(C)=NO)c(O)c1 .
500

###

Target: lipoxygenase from rabbit reticulocytes (Oryctolagus cuniculus, UniProt P12530)
Construct: Lipoxygenase from rabbit reticulocytes was obtained in electrophoretically and immunologically pure form; from tissue; host or cells: rabbit reticulocytes
Experiment: inhibition of activity of lipoxygenase from rabbit reticulocytes
Assay type: biochemical
Settings: limited by solubility, real I50 said to be very much lower; read-out: half-inhibition concentration (I50)
MEASURE NAME: IC50 (µM)
Express the result in µM but write the number alone.

# input compound: CCCCCCCCCCCC(=NO)c1cc(C)ccc1O [5-methyl-2-hydroxy-laurophenone-oxime] ; wanted: its IC50
7
